# EXPERIMENTAL_TARGET: Retinoic acid receptor RXR-beta (Homo sapiens, UniProt P28702)
# Sequence (P28702 whole entry): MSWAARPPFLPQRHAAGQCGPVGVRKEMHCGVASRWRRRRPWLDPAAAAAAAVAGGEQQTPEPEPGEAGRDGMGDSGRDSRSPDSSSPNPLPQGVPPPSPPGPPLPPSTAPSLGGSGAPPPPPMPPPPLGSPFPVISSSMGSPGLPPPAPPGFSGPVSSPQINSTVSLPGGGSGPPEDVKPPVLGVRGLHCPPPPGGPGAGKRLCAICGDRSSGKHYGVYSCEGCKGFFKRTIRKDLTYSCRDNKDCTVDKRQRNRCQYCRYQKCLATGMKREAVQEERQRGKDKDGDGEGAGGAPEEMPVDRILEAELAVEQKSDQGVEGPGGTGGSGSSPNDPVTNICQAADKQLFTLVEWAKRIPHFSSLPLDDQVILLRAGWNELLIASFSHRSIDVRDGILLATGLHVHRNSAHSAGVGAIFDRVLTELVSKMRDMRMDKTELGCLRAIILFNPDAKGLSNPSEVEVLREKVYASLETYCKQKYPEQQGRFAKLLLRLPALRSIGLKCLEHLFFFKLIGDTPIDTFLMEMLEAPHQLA
# TEST_DESCRIPTION: Binding affinity towards recombinantly expressed Retinoic acid receptor RXR-beta in baculoviral system, by using 5 nM [3H]targretin in a competitive binding assay
PARAMETER: Ki (nM)
Numeric only. Scale: nM

Determine reported Ki for Cc1cc2c(cc1/C(=N\O)c1ccc(C(=O)O)cc1)C(C)(C)CCC2(C)C ; test system: Retinoic acid receptor RXR-beta (Homo sapiens, UniProt P28702).
120

Determine reported Ki for CO/N=C(\c1ccc(C(=O)O)cc1)c1cc2c(cc1C)C(C)(C)CCC2(C)C ; test system: Retinoic acid receptor RXR-beta (Homo sapiens, UniProt P28702).
8

Determine reported Ki for Cc1cc2c(cc1/C(=N/OC(C)(C)C)c1ccc(C(=O)O)cc1)C(C)(C)CCC2(C)C ; test system: Retinoic acid receptor RXR-beta (Homo sapiens, UniProt P28702).
623

Continuing:
Determine reported Ki for CCO/N=C(\c1ccc(C(=O)O)cc1)c1cc2c(cc1C)C(C)(C)CCC2(C)C ; test system: Retinoic acid receptor RXR-beta (Homo sapiens, UniProt P28702).
58
